Test: physchem
Description: Dissociation constant, pKa of the compound by UV spectrophotometric analysis
Overview of recorded pKa for various molecules

| Molecule | pKa |
| --- | --- |
| CCCS(=O)(=O)Nc1ccc(Nc2c3ccccc3nc3ccccc23)c(OC)c1 | 7.41 |
| CCCCCCCS(=O)(=O)Nc1ccc(Nc2c3ccccc3nc3c(C(N)=O)cccc23)c(OC)c1 | 6.33 |
| CNC(=O)COc1ccc2c(Nc3ccc(NS(C)(=O)=O)cc3OC)c3ccccc3nc2c1 | 7.35 |
| CCCCCCCS(=O)(=O)Nc1ccc(Nc2c3ccccc3nc3cc([N+](=O)[O-])ccc23)c(OC)c1 | 5.69 |
| NC(=O)CCCCc1ccc(Nc2c3ccccc3nc3ccccc23)cc1 | 7.7 |
| CCCCS(=O)(=O)Nc1ccc(Nc2c3ccccc3nc3ncccc23)c(OC)c1 | 6.06 |
| CNC(=O)CNC(=O)c1cccc2c(Nc3ccc(NS(C)(=O)=O)cc3OC)c3ccccc3nc12 | 6.2 |
| COc1cc(NS(C)(=O)=O)ccc1Nc1c2ccccc2nc2ccccc12 | 7.34 |
| CCCCCS(=O)(=O)Nc1ccc(Nc2c3ccccc3nc3ccccc23)cc1 | 7.19 |
| CCCCCCCCS(=O)(=O)Nc1ccc(Nc2c3ccccc3nc3ccccc23)c(OC)c1 | 7.44 |
| COc1ccc2c(Nc3ccc(NS(C)(=O)=O)cc3OC)c3ccccc3nc2c1 | 7.39 |
| NC(=O)CCCCCCCc1ccc(Nc2c3ccccc3nc3ccccc23)cc1 | 7.7 |
| CCCCCCS(=O)(=O)Nc1ccc(Nc2c3ccccc3nc3cc([N+](=O)[O-])ccc23)c(OC)c1 | 5.7 |
| CCS(=O)(=O)Nc1ccc(Nc2c3ccccc3nc3cc([N+](=O)[O-])ccc23)c(OC)c1 | 5.7 |
| COc1cc(NS(C)(=O)=O)ccc1Nc1c2ccccc2nc2ncccc12 | 6.09 |
| CCCCCCS(=O)(=O)Nc1ccc(Nc2c3ccccc3nc3ccccc23)cc1 | 7.17 |
| CCS(=O)(=O)Nc1ccc(Nc2c3ccccc3nc3ncccc23)c(OC)c1 | 6.07 |
| CCCS(=O)(=O)Nc1ccc(Nc2c3ccccc3nc3cc(NC(C)=O)ccc23)cc1 | 7.33 |
| CCS(=O)(=O)Nc1ccc(Nc2c3ccccc3nc3cc(NC(C)=O)ccc23)c(OC)c1 | 7.54 |
| CCCCCCCS(=O)(=O)Nc1ccc(Nc2c3ccccc3nc3ncccc23)c(OC)c1 | 6.04 |
| CNC(=O)c1cccc2c(Nc3ccc(NS(C)(=O)=O)cc3OC)c3ccccc3nc12 | 6.36 |
| CCCCCCCS(=O)(=O)Nc1ccc(Nc2c3ccccc3nc3ccccc23)c(OC)c1 | 7.42 |
| CCCS(=O)(=O)Nc1ccc(Nc2c3ccccc3nc3cc(OC)ccc23)c(OC)c1 | 7.38 |
| CCCCCS(=O)(=O)Nc1ccc(Nc2c3ccccc3nc3ccccc23)c(OC)c1 | 7.39 |
| CCCCCCS(=O)(=O)Nc1ccc(Nc2c3ccccc3nc3cc(NC(C)=O)ccc23)cc1 | 7.34 |
| CCCS(=O)(=O)Nc1ccc(Nc2c3ccccc3nc3ccccc23)cc1 | 7.2 |
| CCCCS(=O)(=O)Nc1ccc(Nc2c3ccccc3nc3c(C(N)=O)cccc23)c(OC)c1 | 6.34 |
| CCCCCCCS(=O)(=O)Nc1ccc(Nc2c3ccccc3nc3cc(NC(C)=O)ccc23)c(OC)c1 | 7.55 |
| CCCCS(=O)(=O)Nc1ccc(Nc2c3ccccc3nc3cc(NC(C)=O)ccc23)c(OC)c1 | 7.56 |
| CCS(=O)(=O)Nc1ccc(Nc2c3ccccc3nc3ccccc23)c(OC)c1 | 7.4 |
| CCCCCS(=O)(=O)Nc1ccc(Nc2c3ccccc3nc3ncccc23)c(OC)c1 | 6.05 |
| CCCCS(=O)(=O)Nc1ccc(Nc2c3ccccc3nc3cc(NC(C)=O)ccc23)cc1 | 7.32 |
| COc1cc(NS(C)(=O)=O)ccc1Nc1c2ccccc2nc2cc(NC(C)=O)ccc12 | 7.56 |
| CCS(=O)(=O)Nc1ccc(Nc2c3ccccc3nc3ccccc23)cc1 | 7.19 |
| COc1cc(NS(C)(=O)=O)ccc1Nc1c2ccccc2nc2cc([N+](=O)[O-])ccc12 | 5.72 |
| COc1cc(NS(C)(=O)=O)ccc1Nc1c2ccccc2nc2cc(OCC(O)CO)ccc12 (centres undefined) | 7 |
| CCCCS(=O)(=O)Nc1ccc(Nc2c3ccccc3nc3cc(OC)ccc23)c(OC)c1 | 7.35 |
| CCCCS(=O)(=O)Nc1ccc(Nc2c3ccccc3nc3cc([N+](=O)[O-])ccc23)c(OC)c1 | 5.71 |
| COc1cc(NS(C)(=O)=O)ccc1Nc1c2ccccc2nc2cc(OCCCC(N)=O)ccc12 | 7.36 |

----------
List of pKa values.
Experiment: physchem

| Smiles record | pKa |
| --- | --- |
| CCCCOc1ccc2c(Nc3ccc(NS(C)(=O)=O)cc3OC)c3ccccc3nc2c1 | 7.34 |
| CCCCCCS(=O)(=O)Nc1ccc(Nc2c3ccccc3nc3ccccc23)c(OC)c1 | 7.42 |
| COc1cc(NS(C)(=O)=O)ccc1Nc1c2ccccc2nc2cc(OCCO)ccc12 | 7.36 |
| CCCCCCS(=O)(=O)Nc1ccc(Nc2c3ccccc3nc3ncccc23)c(OC)c1 | 6.03 |
| COc1cc(NS(C)(=O)=O)ccc1Nc1c2ccccc2nc2c(C(=O)N(C)C)cccc12 | 6.16 |
| CCCS(=O)(=O)Nc1ccc(Nc2c3ccccc3nc3c(C(N)=O)cccc23)c(OC)c1 | 6.35 |
| CCCS(=O)(=O)Nc1ccc(Nc2c3ccccc3nc3ncccc23)c(OC)c1 | 6.04 |
| CCCOc1ccc2c(Nc3ccc(NS(C)(=O)=O)cc3OC)c3ccccc3nc2c1 | 7.36 |
| CCCCCCS(=O)(=O)Nc1ccc(Nc2c3ccccc3nc3c(C(N)=O)cccc23)c(OC)c1 | 6.33 |
| CCCCCS(=O)(=O)Nc1ccc(Nc2c3ccccc3nc3c(C(N)=O)cccc23)c(OC)c1 | 6.36 |
| CCCCS(=O)(=O)Nc1ccc(Nc2c3ccccc3nc3ccccc23)c(OC)c1 | 7.41 |
| CCCCNC(=O)c1cccc2c(Nc3ccc(NS(C)(=O)=O)cc3OC)c3ccccc3nc12 | 6.36 |
| CCCS(=O)(=O)Nc1ccc(Nc2c3ccccc3nc3cc([N+](=O)[O-])ccc23)c(OC)c1 | 5.69 |
| CCS(=O)(=O)Nc1ccc(Nc2c3ccccc3nc3cc(NC(C)=O)ccc23)cc1 | 7.35 |
| CCS(=O)(=O)Nc1ccc(Nc2c3ccccc3nc3c(C(N)=O)cccc23)c(OC)c1 | 6.35 |
| CCCCCS(=O)(=O)Nc1ccc(Nc2c3ccccc3nc3cc([N+](=O)[O-])ccc23)c(OC)c1 | 5.69 |
| NC(=O)CCCCCCCCc1ccc(Nc2c3ccccc3nc3ccccc23)cc1 | 7.7 |

----------
Experiment: physchem
Reported pKa values for the following compounds.
Readout: pKa

| Smiles record | Readout value |
| --- | --- |
| CCCCCS(=O)(=O)Nc1ccc(Nc2c3ccccc3nc3c(C(=O)NCCCC)cccc23)c(OC)c1 | 6.36 |
| CCCCNC(=O)c1cccc2c(Nc3ccc(NS(=O)(=O)CCC)cc3OC)c3ccccc3nc12 | 6.35 |
| CCOc1ccc2c(Nc3ccc(NS(C)(=O)=O)cc3OC)c3ccccc3nc2c1 | 7.37 |
| NC(=O)CCCc1ccc(Nc2c3ccccc3nc3ccccc23)cc1 | 7.67 |
| CCS(=O)(=O)Nc1ccc(Nc2c3ccccc3nc3cc(OC)ccc23)c(OC)c1 | 7.36 |

The origin of these recorded values is ChEMBL document CHEMBL3244417.
